Tested on: Alopecurus myosuroides (ALOMY)
assay.procedure: Glasshouse assay for herbicidal activity (pre- and post-emergence), percentage phytotoxicity
Type: in vivo
recorded.conditions: Alopecurus myosuroides, pre-emergence, 480 h, 250 g/ha; pre-emergence; 20 DAA; visual assessment (100%=total damage, 0%=no damage); read-out: Pre-emergence herbicidal activity (percentage phytotoxicity) ALOMY PRE
Reported pest or weed control at 250 g/ha values follow for various compounds
All answers are understood in %, so give the number only.

[
  {
    "compound": "Cc1cc(-c2ncc(Cl)cn2)cc(C)c1C1C(=O)C[C@H](CC(=O)NC(C)(C)C)C1=O (stereo partly shown)",
    "test.system": "Alopecurus myosuroides (ALOMY)",
    "units": "%",
    "observed.measurement": 90
  },
  {
    "compound": "Cc1cc(C)c(C2C(=O)CC(CC(=O)NCc3ccc(F)cc3)C2=O)c(C)c1 (stereo not shown)",
    "test.system": "Alopecurus myosuroides (ALOMY)",
    "units": "%",
    "observed.measurement": 80
  },
  {
    "compound": "Cc1cc(C)c(C2C(=O)CC(CC(=O)Nc3ccc(C#N)cc3)C2=O)c(C)c1 (stereo not shown)",
    "test.system": "Alopecurus myosuroides (ALOMY)",
    "units": "%",
    "observed.measurement": 20
  },
  {
    "compound": "Cc1cc(C)c(C2C(=O)CC(CC(=O)NCC(CF)CF)C2=O)c(C)c1 (stereo not shown)",
    "test.system": "Alopecurus myosuroides (ALOMY)",
    "units": "%",
    "observed.measurement": 90
  },
  {
    "compound": "Cc1cc(-c2ncc(Cl)cc2F)cc(C)c1C1C(=O)CC(CC(=O)NCCF)C1=O (stereo not shown)",
    "test.system": "Alopecurus myosuroides (ALOMY)",
    "units": "%",
    "observed.measurement": 100
  },
  {
    "compound": "Cc1cc(-c2ncc(F)cc2F)cc(C)c1C1C(=O)CC(CC(=O)NCC2CC2(Cl)Cl)C1=O (stereo not shown)",
    "test.system": "Alopecurus myosuroides (ALOMY)",
    "units": "%",
    "observed.measurement": 90
  },
  {
    "compound": "C#CC(C)(C)NC(=O)CC1CC(=O)C(c2c(C)cc(-c3ncc(F)cn3)cc2C)C1=O (stereo not shown)",
    "test.system": "Alopecurus myosuroides (ALOMY)",
    "units": "%",
    "observed.measurement": 90
  },
  {
    "compound": "CCCCNC(=O)CC1CC(=O)C(c2c(C)cc(-c3ncc(F)cn3)cc2C)C1=O (stereo not shown)",
    "test.system": "Alopecurus myosuroides (ALOMY)",
    "units": "%",
    "observed.measurement": 70
  }
]

Exam item: // pest or weed control at 250 g/ha lookup, key: CCNC(=O)CC1CC(=O)C(c2c(C)cc(-c3ncc(Cl)cc3F)cc2C)C1=O (stereo not shown)
Marked response: 100

Exam item: GET /values?readout=pest or weed control at 250 g/ha&item= C=CCNC(=O)CC1CC(=O)C(c2c(C)cc(-c3ncc(F)cn3)cc2C)C1=O (stereo not shown)
Marked response: 100

Exam item: # lookup: pest or weed control at 250 g/ha of Cc1cc(C)c(C2C(=O)CC(CC(=O)NCC3CC3C(F)F)C2=O)c(C)c1 (stereo not shown)
Marked response: 90

Exam item: Please look up its pest or weed control at 250 g/ha: Cc1cc(C)c(C2C(=O)CC(CC(=O)NCc3cccc(Br)c3)C2=O)c(C)c1 (stereo not shown)
Marked response: 70

Exam item: Look at this compound and give its reported pest or weed control at 250 g/ha. Cc1cc(-c2ncc(Cl)cc2F)cc(C)c1C1C(=O)CC(CC(=O)NCC2CC2)C1=O (stereo not shown)
Marked response: 100

Exam item: Bench note: what pest or weed control at 250 g/ha did Cc1ccnc(CNC(=O)CC2CC(=O)C(c3c(C)cc(C)cc3C)C2=O)c1 (stereo not shown) show?
Marked response: 90
